Data provenance: patent US20250011363A1

- Experimental target: acetylcholine receptor
- Test summary: SPR, AchR immobilised, peptide 10 uM
Experimental readout: Binding affinity (RU)

Some binders with recorded Binding affinity (RU):
{"Binder": "RKKDMR [6mer-1-1098]", "Recorded measurement": 42}
{"Binder": "RRECDK [6mer-1-1101]", "Recorded measurement": 37}
{"Binder": "RKCHVK [6mer-1-618]", "Recorded measurement": 19}
{"Binder": "KRPNVR [6mer-1-639]", "Recorded measurement": 24}
{"Binder": "RKNMFR [6mer-1-655]", "Recorded measurement": 12}

1. RRKEAK [6mer-1-1120]
2. KREAMK [6mer-1-1085]
Exam item: Endpoint returns the identifier whose Binding affinity (RU) is numerically larger, either 1 or 2 . Identify your pick by its label.
Marked response: 2
(2: 33 RU, 1: 22 RU)

I. KKFTKK [6mer-1-604]
II. KRMTHR [6mer-1-653]
III. KKKKPK [6mer-1-1128]
Exam item: Let's sort these by Binding affinity (RU), smallest first. Go ahead? Please list the labels according to the requested order.
Marked response: II, I, III
(II: 15 RU, I: 24 RU, III: 39 RU)

1. KRDHIK [6mer-1-664]
2. KKTSER [6mer-1-615]
Exam item: Endpoint returns the identifier whose Binding affinity (RU) is numerically larger, either 1 or 2 . Identify your pick by its label.
Marked response: 1
